test: Drug metabolism in prednisone treated CD1 mouse liver microsomes assessed as metabolite formation at 20 uM after 30 mins by LC/MS analysis in presence of NADPH and CYP1A2 inhibitor furafyline; assay type: ADME; details: 0.5 h
measured.parameter: Drug metabolism

Completed entries (count: 4):
chemical_string=C=C1/C(=C\C=C2/CCC[C@]3(C)[C@@H]([C@H](C)CC[C@@H](O)C(C)(C)O)CC[C@@H]23)C[C@@H](O)C[C@@H]1O measured_parameter="Drug metabolism" result=metabolite_detected
chemical_string=C=C1/C(=C\C=C2/CCC[C@]3(C)[C@@H]([C@H](C)C[C@@H](O)CC(C)(C)O)CC[C@@H]23)C[C@@H](O)C[C@@H]1O measured_parameter="Drug metabolism" result=metabolite_detected
chemical_string=C=C1/C(=C\C=C2/CCC[C@]3(C)[C@@H]([C@H](C)CCCC(C)(C)O)CC[C@@H]23)C[C@@H](O)C[C@@H]1O measured_parameter="Drug metabolism" result=metabolite_detected
chemical_string=C=C1/C(=C\C=C2/CCC[C@]3(C)[C@@H]([C@H](C)C[C@H](O)CC(C)(C)O)CC[C@@H]23)C[C@@H](O)C[C@@H]1O measured_parameter="Drug metabolism" result=metabolite_detected

Let us move to another entry and its Drug metabolism.
Can you share its Drug metabolism? I mean this molecule: C=C1/C(=C\C=C2/CCC[C@]3(C)[C@@H]([C@H](C)CC[C@H](O)C(C)(C)O)CC[C@@H]23)C[C@@H](O)C[C@@H]1O
metabolite_detected

* * *

experiment: Drug metabolism in dexamethasone treated CD1 mouse liver microsomes assessed as depletion of parent compound at 1 uM after 30 mins by LC/MS analysis in presence of NADPH; assay type: ADME; conditions: liver microsomes from dexamethasone-treated mice, read-out: Drug metabolism
measured.parameter: metabolised at 0.5 h, 1 µM (%)
Give bare numbers, in %.

Can you share its metabolised at 0.5 h, 1 µM? I mean this compound: C=C1/C(=C\C=C2/CCC[C@]3(C)[C@@H]([C@H](C)CCCC(C)(C)O)CC[C@@H]23)C[C@@H](O)C[C@@H]1O [CALCITRIOL]
70

* * *

Assignment: determine reported pIC50 for the given compounds.
test system: Liver microsome; experiment: Drug metabolism in human liver microsomes assessed as IC50 for ketoconazole-mediated inhibition of metabolite formation at 20 uM after 30 mins by LC/MS analysis; type: ADME; conditions: 0.5 h
Give bare numbers, as −log10 of the molar value.

Completed entries (count: 3):
chemical_string=C=C1/C(=C\C=C2/CCC[C@]3(C)[C@@H]([C@H](C)CC[C@@H](O)C(C)(C)O)CC[C@@H]23)C[C@@H](O)C[C@@H]1O measured_parameter=pIC50 numeric_result=7.38
chemical_string=C=C1/C(=C\C=C2/CCC[C@]3(C)[C@@H]([C@H](C)C[C@H](O)CC(C)(C)O)CC[C@@H]23)C[C@@H](O)C[C@@H]1O measured_parameter=pIC50 numeric_result=7.40
chemical_string=C=C1/C(=C\C=C2/CCC[C@]3(C)[C@@H]([C@H](C)CC[C@H](O)C(C)(C)O)CC[C@@H]23)C[C@@H](O)C[C@@H]1O measured_parameter=pIC50 numeric_result=6.25

Let us move to another entry and its pIC50.
Can you share its pIC50? I mean this compound: C=C1/C(=C\C=C2/CCC[C@]3(C)[C@@H]([C@H](C)C[C@@H](O)CC(C)(C)O)CC[C@@H]23)C[C@@H](O)C[C@@H]1O
7.49

* * *

system: Liver microsome; test: Drug level in human liver microsomes assessed as retention time treated with 20 uM of 1alpha,25(OH)2D3 after 30 mins by LC/MS analysis in presence of NADPH; format: ADME; details: 0.5 h
Assignment: determine reported Retention_time for the given compounds.
Numbers only, in min.

Completed entries (count: 3):
chemical_string=C=C1/C(=C\C=C2/CCC[C@]3(C)[C@@H]([C@H](C)CC[C@H](O)C(C)(C)O)CC[C@@H]23)C[C@@H](O)C[C@@H]1O numeric_result=9
chemical_string=C=C1/C(=C\C=C2/CCC[C@]3(C)[C@@H]([C@H](C)CC[C@@H](O)C(C)(C)O)CC[C@@H]23)C[C@@H](O)C[C@@H]1O numeric_result=8.8
chemical_string=C=C1/C(=C\C=C2/CCC[C@]3(C)[C@@H]([C@H](C)C[C@@H](O)CC(C)(C)O)CC[C@@H]23)C[C@@H](O)C[C@@H]1O numeric_result=9.7

Let us move to another entry and its Retention_time.
Please provide the recorded Retention_time for C=C1/C(=C\C=C2/CCC[C@]3(C)[C@@H]([C@H](C)C[C@H](O)CC(C)(C)O)CC[C@@H]23)C[C@@H](O)C[C@@H]1O , tested on Liver microsome.
8.5
